Experiment: caspase-8 TRAIL sensitization, hit retest, confirmation, cell-based, NB7+caspase-8, with/without TRAIL, luminescence panel (AID 651596)
Conditions: NB7 neuroblastoma + caspase-8, without TRAIL, luminescence viability, without TRAIL, mean of runs, at 10 µM
Decision: activity beneath 70% gives condition met; activity meeting or exceeding 70% gives condition not met.

> print(dat)
                                    molecule     classification
 1  O=[N+]([O-])c1cc(S(=O)(=O)N2CCCCCC2)ccc1F  condition not met
 2        Cc1ccc(C(C#N)=Cc2ccc3c(c2)OCO3)cc1      condition met
 3  Cc1cc(Br)c(OCc2ccc(C(=O)N/N=C/c3ccc[nH]3)cc2)c(Br)c1  condition not met
 4               CCOc1ccc(NC(=O)Nc2cccs2)cc1      condition met
 5              Cc1cccc(Nc2nc(N)nc(CCl)n2)c1  condition not met
 6  Nc1nc(=S)c2ncn([C@@H]3O[C@H](CO)[C@@H](O)[C@H]3O)c2[nH]1  condition not met
 7  CC(C)(C)OC(=O)NCCCC[C@H](NC(=O)c1[nH]cnc1C(=O)Nc1ccccc1)C(=O)OC(C)(C)C      condition met
 8      O=C(CSc1nnc(-c2ccccc2Cl)o1)Nc1ccccn1  condition not met
 9  CC(C)c1ccc(NC(=O)Nc2nc(C(N)COCc3ccccc3)cs2)cc1 (stereo not drawn)  condition not met
10  COc1ccc(OC)c(NC(=O)c2nc(S(=O)(=O)Cc3ccccc3)ncc2Cl)c1  condition not met
11        COc1ccc(-c2nc3ccccc3c(=O)[nH]2)cc1  condition not met
12  O=C(CCS(=O)(=O)c1ccccc1)Nc1ccc(-c2nc3ccccc3s2)cc1      condition met
